src = PubChem BioAssay

Target: Dickkopf-related protein 1 (Homo sapiens) (UniProt O94907)
Sequence (O94907 whole entry, looked up): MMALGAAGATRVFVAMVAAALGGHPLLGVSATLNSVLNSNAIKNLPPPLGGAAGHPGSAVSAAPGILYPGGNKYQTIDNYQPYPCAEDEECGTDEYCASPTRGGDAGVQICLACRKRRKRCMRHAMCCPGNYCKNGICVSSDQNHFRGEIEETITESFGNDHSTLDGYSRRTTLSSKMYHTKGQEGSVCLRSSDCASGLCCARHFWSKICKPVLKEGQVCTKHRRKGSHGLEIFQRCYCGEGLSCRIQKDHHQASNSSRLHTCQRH
Assay: DKK1 binders on small-molecule microarrays, primary screen, biochemical, small-molecule microarray, 635 nm fluorescence scan (AID 1106);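 also: score merges emission near 667 nm with signal to noise over three replicate slides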
Settings: DKK1 binding, higher = more signal
Respond with Fulfilled for composite z-score values of 0.04 and above, Not fulfilled for values below.

>>> cat("C=CCNC(=O)[C@@H]1[C@H]2C(=O)O[C@H](c3ccccc3)[C@H](c3ccccc3)N2[C@H](c2ccccc2OCCO)[C@@]12C(=O)Nc1ccc(C#CC3=CCCCC3)cc12")
"Fulfilled"
>>> cat("CC(C)N1C(=O)c2ccccc2[C@@H](C(=O)NCCCN(C)C)[C@@H]1c1ccc(CO)cc1")
"Not fulfilled"
>>> cat("CCCCC=C[C@@H](NC(=O)c1ccc(C(=O)OC)cc1)c1ccccc1")
"Fulfilled"
>>> cat("C=CCC(OC(C)=O)[C@@H]1[C@@H](N(Cc2cc3ccccc3o2)C(=O)c2ccc(C)cc2)c2cc(OCCCO)ccc2N1C(=O)c1ccc2ccccc2c1 (some centres not stated)")
"Not fulfilled"
>>> cat("CC(C)NC(=O)[C@@H]1c2ccccc2C(=O)N(Cc2ccccc2Cl)[C@H]1c1ccc(CO)cc1")
"Not fulfilled"

Check the entry CCOC(=O)C[C@H]1[C@H](OC(=O)c2ccc(C(=O)c3ccccc3)cc2)[C@@H](NC(=O)C2CCCCC2)c2cc(OCCCO)ccc2N1C(=O)c1ccccc1 : does composite z-score equal or exceed 0.04?
Fulfilled

Check the entry O=C1C[C@@](C(=O)NC2CC2)(c2ccc([N+](=O)[O-])cc2)[C@@H](c2ccc(CO)cc2)N1CC12CC3CC(CC(C3)C1)C2 : does composite z-score equal or exceed 0.04?
Fulfilled

* * *

z-score overview
Experiment: E. coli DRC41 culture turbidity changes, primary screen, E. coli filamentation inducer project, strain DRC41, OD650, 48 h (AID 1152);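 also: E. coli MC1000 strain DRC41 lacking acrAB efflux pump and sulA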
Conditions: E. coli DRC41 (acrAB sulA), higher = more signal, called active from +8 up or from −8 down
Answer with a bare number; do not write a unit.

// known answers, use as guide
>>> measured_value("COC(=O)[C@@]1(Cc2ccccc2)[C@H]2c3cc(C(=O)N(C)C)n(Cc4cc(C)n(C)n4)c3C[C@H]2CN1C(=O)c1ccccc1")
-1.85
>>> measured_value("COCCOC(=O)N1C(=O)[C@@]2(c3cc(C#CCNC(N)=O)ccc31)[C@H](c1ccc(O)cc1)N1[C@H](c3ccccc3)[C@H](c3ccccc3)OC(=O)[C@H]1[C@@H]2C(=O)Nc1nc2ccccc2s1")
3.62
>>> measured_value("C=C(CCCC)C(=O)CC[C@H](OC(=O)c1cccnc1)c1cccc(OCCO)c1")
-0.03
>>> measured_value("CCOC(=O)C[C@H]1[C@H](OC(=O)c2ccccc2-c2ccccc2)[C@@H](NC(=O)c2ccc3ccccc3c2)c2cc(OCCCO)ccc2N1C(=O)c1ccc2ccccc2n1")
0.0514
>>> measured_value("COCC1=C2[C@@H](CCc3ccccc3)OB(O)C[C@@H]2[C@@H]2C(=O)N(Cc3ccccc3)C(=O)[C@@H]2C1")
-0.536
>>> measured_value("COc1ccc(C(=O)Nc2cccc(CN3C(=O)[C@@]4(O[C@@H](CCn5cc(CCO)nn5)[C@H]([Si](C)(C)c5ccc(OC)cc5)[C@H]4C)c4ccccc43)c2)cc1")
-2.23

Fill blank: measured z-score of the molecule CCCCC=C[C@@H](NC(=O)c1cccs1)c1ccccc1 is ____.
-1.05

Fill blank: measured z-score of the molecule COc1ccc([Si](C)(C)[C@@H]2[C@@H](CCn3cc([C@H](O)c4ccccc4)nn3)O[C@]3(C(=O)N(Cc4ccc(N5C(=O)c6cccc7cccc5c67)cc4)c4ccccc43)[C@H]2C)cc1 is ____.
0.74
